Target: vanilloid receptor 1 (VR1/TRPV1 receptor) (Homo sapiens, UniProt Q8NER1)
Construct: expressed in transfected cells; host or cells: CHO K1 cells (ECACC), stably transfected
Sequence (Q8NER1 whole entry): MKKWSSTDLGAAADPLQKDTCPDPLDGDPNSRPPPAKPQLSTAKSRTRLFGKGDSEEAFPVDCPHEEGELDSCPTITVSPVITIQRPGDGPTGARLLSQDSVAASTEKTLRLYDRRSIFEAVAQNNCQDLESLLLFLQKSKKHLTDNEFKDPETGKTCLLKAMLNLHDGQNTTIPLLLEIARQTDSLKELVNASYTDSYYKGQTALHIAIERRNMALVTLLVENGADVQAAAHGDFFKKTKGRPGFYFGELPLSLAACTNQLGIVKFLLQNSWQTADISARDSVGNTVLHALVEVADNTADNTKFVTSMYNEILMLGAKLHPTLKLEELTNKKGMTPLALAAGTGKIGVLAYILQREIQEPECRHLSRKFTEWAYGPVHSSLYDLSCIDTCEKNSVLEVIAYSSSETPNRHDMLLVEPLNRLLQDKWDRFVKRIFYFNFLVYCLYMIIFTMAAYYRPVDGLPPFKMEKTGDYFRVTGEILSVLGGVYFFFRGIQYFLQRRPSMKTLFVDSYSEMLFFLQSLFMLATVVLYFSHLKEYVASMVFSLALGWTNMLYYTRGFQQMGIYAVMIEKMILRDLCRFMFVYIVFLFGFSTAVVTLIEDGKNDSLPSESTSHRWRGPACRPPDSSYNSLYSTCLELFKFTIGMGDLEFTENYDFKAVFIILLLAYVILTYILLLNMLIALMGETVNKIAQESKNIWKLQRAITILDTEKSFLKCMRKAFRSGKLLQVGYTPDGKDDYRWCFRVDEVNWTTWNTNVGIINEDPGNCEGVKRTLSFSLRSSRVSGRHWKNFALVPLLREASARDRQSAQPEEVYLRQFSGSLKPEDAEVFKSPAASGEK
Assay: Functional testing on vanilloid receptor 1: FLIPR Ca2+ influx assay against capsaicin (Cap) in transfected CHO K1 cells (pharmacological method II); on (f) Ki (human being) [nM] Cap: 100 nM capsaicin
Type: cell-based
Settings: @ 5µM; human VR1 in CHO K1 cells; capsaicin; relative to maximum inhibition with 10 µM capsazepine; read-out: inhibition (as a percentage), printed in column (f) Ki (human being) [nM] Cap
Please provide measured inhibition at 5 µM for the entries that follow.
Answer by giving the amount and then stating its unit.

Exercise: # inhibition at 5 µM lookup, item N#Cc1cccc(-n2nc(C(F)(F)F)cc2CNC(=O)Nc2ccc(CO)c(F)c2)c1 [A85]
Solution: 53%

Exercise: Would you mind doing CC(C)(C)c1cc(CNC(=O)Nc2ccc(C(CO)CO)c(F)c2)n(-c2cccc(Cl)c2)n1 [A152] as well?
Solution: 39%

Exercise: Repeat for the following compound: O=C(NCc1cc(C(F)(F)F)nn1-c1ccc(F)c(F)c1)Nc1ccc(COCCO)c(F)c1 [A132]
Solution: 48%

###

Target: vanilloid receptor 1 (VR1/TRPV1 receptor) (Homo sapiens, UniProt Q8NER1)
Construct: expressed in transfected cells; host or cells: CHO K1 cells (ECACC), stably transfected
Assay: Functional testing on vanilloid receptor 1: FLIPR Ca2+ influx assay against capsaicin (Cap) in transfected CHO K1 cells (pharmacological method II); on (f) Ki (human being) [nM] Cap: 100 nM capsaicin
Assay type: cell-based
Conditions: read-out: (f) Ki (human being) [nM] Cap
Answer each item with its documented Ki.
Number only, in nM; omit the unit.

Exercise: What does the record list as Ki for Cc1cccc(-n2nc(C(F)(F)F)cc2CNC(=O)Nc2ccc(CO)c(F)c2)c1 [A70] ?
Solution: 9

Exercise: Also need CC(O)c1ccc(C(C)C(=O)NCc2cc(C(F)(F)F)nn2-c2cccc(Cl)c2)cc1F (stereo not drawn) [A99] , thanks.
Solution: 6

Exercise: Do the same for COc1c(F)cc(CC(=O)NCc2cc(C(C)(C)C)nn2-c2cccc(Cl)c2)cc1F [A1] please
Solution: 12

Exercise: Query O=C(NCc1cc(C(F)(F)F)nn1-c1ccc(F)c(Cl)c1)Nc1ccc(CO)c(F)c1 [A65] next
Solution: 6

Exercise: Follow-up entry: CC(C)(C)c1cc(CNC(=O)Nc2ccc(CO)c(F)c2)n(-c2ccc(F)c(F)c2)n1 [A57]
Solution: 2

Exercise: Can you check O=C(NCc1cc(C(F)(F)F)nn1-c1cccc(F)c1)Nc1ccc(COCCO)c(F)c1 [A131] next?
Solution: 56

Exercise: Queued: O=C(NCc1cc(C(F)(F)F)nn1-c1cccc(Cl)c1Cl)Nc1ccc(COCCO)c(F)c1 [A133]
Solution: 12

Exercise: Do the same for CC(C(=O)NCc1cc(C(F)(F)F)nn1-c1cc(F)cc(F)c1)c1ccc(COCCO)c(F)c1 (stereo not drawn) [A126] please
Solution: 79

Exercise: # repeat for O=C(NCc1cc(C(F)(F)F)nn1-c1cccc(Cl)c1)Nc1cc(F)c(O)c(F)c1 [A12]
Solution: 8

Exercise: Same read-out for CC(C)c1cccc(-n2nc(C(F)(F)F)cc2CNC(=O)C(C)c2ccc(COCCO)c(F)c2)c1 (stereo not drawn) [A115] ?
Solution: 3

Exercise: Now consider O=C(NCc1cc(C(F)(F)F)nn1-c1ccc(F)c(Cl)c1)Nc1ccc(COCCO)c(F)c1 [A130] and answer again.
Solution: 47

Exercise: Now the compound O=C(NCc1cc(C(F)(F)F)nn1-c1cccc(Cl)c1)Nc1ccc(OCCO)c(F)c1 [A20]
Solution: 37

Exercise: // repeat for CC(C)(C)c1cc(CNC(=O)Nc2ccc(C(O)CO)c(F)c2)n(-c2cccc(Cl)c2)n1 (stereo not drawn) [A150] and report
Solution: 19

Exercise: Same question, CC(C(=O)NCc1cc(C(C)(C)C)nn1-c1cccc(Cl)c1)c1ccc(COCCO)c(F)c1 (stereo not drawn) [A117] this time
Solution: 9

Exercise: Lookup COc1c(F)cc(CC(=O)NCc2cc(C(F)(F)F)nn2-c2cccc(Cl)c2)cc1F [A2]
Solution: 33

Exercise: Same question for CCOc1ccc(-n2nc(C(F)(F)F)cc2CNC(=O)Nc2ccc(CO)c(F)c2)cc1C [A79] please.
Solution: 20

Exercise: Next record, please: COc1c(Cl)cccc1-n1nc(C(F)(F)F)cc1CNC(=O)Nc1ccc(CO)c(F)c1 [A90]
Solution: 27

Exercise: Would you mind doing CC(C(=O)NCc1cc(C(F)(F)F)nn1-c1cccc(Cl)c1)c1ccc(CCO)c(F)c1 (stereo not drawn) [A138] as well?
Solution: 8

Exercise: And for Cc1cc(-n2nc(C(F)(F)F)cc2CNC(=O)Nc2ccc(CO)c(F)c2)ccc1F [A80] ?
Solution: 7

Exercise: And for O=C(NCc1cc(C(F)(F)F)nn1-c1cccc(C(F)F)c1)Nc1ccc(CO)c(F)c1 [A83] ?
Solution: 12

Exercise: Next: CC(C(=O)NCc1cc(C(F)(F)F)nn1-c1ccc(F)c(Cl)c1)c1ccc(COCCO)c(F)c1 (stereo not drawn) [A121]
Solution: 20

Exercise: Another: O=C(NCc1cc(C(F)(F)F)nn1-c1cccc(F)c1)Nc1ccc(OCCO)c(F)c1 [A21]
Solution: 7

Exercise: // repeat for CC(C(=O)NCc1cc(C(F)(F)F)nn1-c1ccc(F)c(F)c1)c1ccc(C2(O)CC2)c(F)c1 (stereo not drawn) [A104] and report
Solution: 12

Exercise: Now give it for COc1cc(C(C)C(=O)NCc2cc(C(F)(F)F)nn2-c2cccc(Cl)c2)ccc1CO (stereo not drawn) [A50] too.
Solution: 1

###

Target: vanilloid receptor 1 (VR1/TRPV1 receptor) (Homo sapiens)
Construct: expressed in transfected cells; host or cells: CHO K1 cells (ECACC), stably transfected
Assay: Functional testing on vanilloid receptor 1: FLIPR Ca2+ influx assay against capsaicin (Cap) in transfected CHO K1 cells (pharmacological method II); on (f) Ki (human being) [nM] Cap: 100 nM capsaicin
Assay type: cell-based
Settings: read-out: (f) Ki (human being) [nM] Cap
I'd appreciate it if you could supply Ki values for the items below.
Could you write the number and then its unit?

Exercise: For the molecule shown here, CC(C(=O)NCc1cc(C(F)(F)F)nn1-c1cccc(Cl)c1)c1ccc(C2(O)CC2)c(F)c1 (centres unmarked) [A101] , give the reported Ki.
Solution: 4 nM

Exercise: // query: CC(C)(C)c1cc(CNC(=O)Nc2ccc(C3(O)CC3)c(F)c2)n(-c2cccc(Cl)c2)n1 [A105]
Solution: 19 nM

Exercise: Subsequent entry: COCCOCc1ccc(NC(=O)NCc2cc(C(F)(F)F)nn2-c2cccc(Cl)c2)cc1F [A128]
Solution: 67 nM

Exercise: Input CC(C(=O)NCc1cc(C(C)(C)C)nn1-c1ccc(F)cc1)c1ccc(CO)c(F)c1 (centres unmarked) [A45]
Solution: 1 nM

Exercise: Same for Cc1cc(-n2nc(C(F)(F)F)cc2CNC(=O)Nc2ccc(CO)c(F)c2)ccc1C#N [A81]
Solution: 21 nM

###

Task for the reader: assign each of the following compounds its reported Ki.
Biological target: vanilloid receptor 1 (VR1/TRPV1 receptor) (Homo sapiens)
Construct: expressed in transfected cells; host or cells: CHO K1 cells (ECACC), stably transfected
Test: Functional testing on vanilloid receptor 1: FLIPR Ca2+ influx assay against capsaicin (Cap) in transfected CHO K1 cells (pharmacological method II); on (f) Ki (human being) [nM] Cap: 100 nM capsaicin
Type: cell-based
Conditions: read-out: (f) Ki (human being) [nM] Cap
// note: answer is a bare numeric in nM

Exercise: For the compound shown here, CC(C)(C)c1cc(CNC(=O)Nc2ccc(CO)cc2)n(-c2cccc(Cl)c2)n1 , give the reported Ki.
Solution: 1

Exercise: How about Cc1cccc(-n2nc(C(F)(F)F)cc2CNC(=O)Nc2ccc(CO)c(F)c2)c1F ?
Solution: 41

Exercise: Ok, now O=C(NCc1cc(C(F)(F)F)nn1-c1ccc(F)c(F)c1)Nc1ccc(CO)c(F)c1
Solution: 26

Exercise: Lookup CC(C)c1cccc(-n2nc(C(F)(F)F)cc2CNC(=O)C(C)c2ccc(CCO)c(F)c2)c1 (centres unmarked)
Solution: 0.6

Exercise: Check O=C(NCc1cc(C(F)(F)F)nn1-c1cccc(Cl)c1)Nc1ccc(OCC(O)CO)cc1 (centres unmarked) too.
Solution: 35

Exercise: What would you report for CC(C(=O)NCc1cc(C(F)(F)F)nn1-c1cccc(Cl)c1)c1ccc(C(O)CO)c(F)c1 (centres unmarked) ?
Solution: 4

Exercise: Also CC(C(=O)NCc1cc(C(F)(F)F)nn1-c1cccc(F)c1)c1ccc(CO)c(F)c1 (centres unmarked) ?
Solution: 11

Exercise: Can you check COc1c(F)cc(CC(=O)NCc2cc(C(C)(C)C)nn2-c2ccc(F)c(Cl)c2)cc1F next?
Solution: 14
